Origin of measurements: the supplement of paper PMC6805474

tested on: Schistosoma mansoni schistosomula (Liberian); experiment: drug effect (1 - score/DMSO control score) (fraction); higher = more antischistosomal effect, active = 0.5 or more; extreme values may be limits of the assay; conditions: 24 h; 10 µM
Let's look at some molecules and their measured drug effect.

The examples below pair each entry with its known result.
- molecule: "COc1cc(C(F)(F)F)nc2ccc(C)c(N)c12"
  measurementLabel: "drug effect"
  experimentalValue: "0.136 (inactive)"
- molecule: "CN1CCCC1CCO[C@](C)(c1ccccc1)c1ccc(Cl)cc1 (some centres not stated)"
  measurementLabel: "drug effect"
  experimentalValue: "0.9 (active)"
- molecule: "Cc1cccnc1NC(=O)c1cccc(OCc2c(C)noc2C)c1"
  measurementLabel: "drug effect"
  experimentalValue: "0.0909 (inactive)"
- molecule: "Cc1ccc(S(=O)(=O)n2cc(-c3ccnc(N)c3)c3cc(Br)cnc32)cc1"
  measurementLabel: "drug effect"
  experimentalValue: "0.45 (inactive)"
- molecule: "COc1ccc(-c2cncc3ccc(C(=O)NCCCn4ccnc4)nc23)cc1"
  measurementLabel: "drug effect"
  experimentalValue: "< 0 (inactive)"
- molecule: "Cc1ncc(-c2ccnc(Nc3ccc(S(C)(=O)=O)cc3)n2)n1C(C)C"
  measurementLabel: "drug effect"
  experimentalValue: "0.15 (inactive)"
- molecule: "Cc1cc(Cl)c(S(=O)(=O)N2CCCC2)cc1OCC(=O)NC1CCCCC1"
  measurementLabel: "drug effect"
  experimentalValue: "0.1 (inactive)"
- molecule: "Cc1ccc2[nH]c3c(NCCN(C)C)ncnc3c2c1"
  measurementLabel: "drug effect"
  experimentalValue: "0.25 (inactive)"
- molecule: "C[C@H](c1ccc2c(c1)CCCC2)N(C)c1ncc2c(N)nc(N)nc2n1"
  measurementLabel: "drug effect"
  experimentalValue: "0.2 (inactive)"
- molecule: "O=C(Nc1cccc(Cl)c1)c1cnc(N2CCN(c3ccncc3)CC2)c(Cl)c1"
  measurementLabel: "drug effect"
  experimentalValue: "0.8 (active)"

Would you kindly share the measured drug effect for NCCC(O)C(=O)N[C@@H]1C[C@H](N)[C@@H](OC2O[C@H](CN)[C@@H](O)[C@H](O)[C@H]2O)[C@H](O)C1OC1O[C@H](CO)[C@@H](O)[C@H](N)[C@H]1O (some centres not stated) ?
< 0 (inactive)

Now try "O=C(c1ccc(F)cc1)N(CCNc1ccccc1)c1ccccc1" .
0.135 (inactive)

Also check "c1coc(CNc2nc(N3CCCCC3)nc3ccccc23)c1"
1 (active)
